Target: Glucocorticoid receptor (Homo sapiens)
Test: GR-EFC Redistribution (AID 451); further: potency means the concentration at half of the fitted maximal effect
Settings: CHO-K1 GR-EFC translocation, beta-gal luminescence, 2 h
Calls of active or inactive are those of the source. The call rests on the fitted dose curve.
experimental readout: Potency

Asked: Indicate the recorded Potency value for this compound: Cc1cn(CC[C@H](N)C(=O)O)c(=O)[nH]c1=O
Given back: > 9.22 µM (inactive)

Asked: Give the reported value of Potency for this record: CC[C@H]1CN(C)[C@H]2Cc3c([nH]c4ccccc34)C(=O)C[C@H]1[C@H]2C(=O)OC
Given back: > 9.22 µM (inactive)

====

Biological target: Cytochrome P450 1A2 (Homo sapiens)
Test: p450-cyp1a2 (AID 410);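 further: -100% = full effect of reference inhibitor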
Details: recombinant CYP1A2, luciferin-ME demethylation, luminescence; series mostly up to 11.4 µM
Results filed as inconclusive are left out. Active and inactive are the calls of the source. Calls come from the whole dose curve.
Reported values of activity change, negative = inhibition for individual entries

In the examples that follow, each entry is paired with its recorded activity change, negative = inhibition.
smiles entry	activity change, negative = inhibition
CN(CC(=O)O)CC(=O)O	-5.9% [at 2.29 µM] (inactive)
Nc1ccc(S(=O)(=O)c2ccc(NC(=O)c3cccnc3)cc2)cc1	-21.1% [at 2.29 µM] (inactive)
C[C@]12CC[C@H]3c4ccc(O)cc4CC[C@@H]3[C@H]1CC[C@@H]2OP(=O)(O)O	-11.2% [at 2.29 µM] (inactive)
Cc1cc(C(C)(C)C)c(OCCCN2CCOCC2)c(C(C)(C)C)c1	-17.7% [at 2.29 µM] (inactive)

Okay, now this compound:
Asked: State recorded activity change, negative = inhibition with Cytochrome P450 1A2 (Homo sapiens), entry C[C@]1(c2ccccc2)O[C@@H]2C[C@@H]3[C@@H]4CCC5=CC(=O)C=C[C@@]5(C)[C@]4(F)[C@H](O)C[C@]3(C)[C@@]2(C(=O)CO)O1 , no comment.
Given back: -16.4% [at 2.29 µM] (inactive)

====

Biological target: Cytochrome P450 2C19 (Homo sapiens) (UniProt P33261)
Sequence (P33261 whole entry, looked up): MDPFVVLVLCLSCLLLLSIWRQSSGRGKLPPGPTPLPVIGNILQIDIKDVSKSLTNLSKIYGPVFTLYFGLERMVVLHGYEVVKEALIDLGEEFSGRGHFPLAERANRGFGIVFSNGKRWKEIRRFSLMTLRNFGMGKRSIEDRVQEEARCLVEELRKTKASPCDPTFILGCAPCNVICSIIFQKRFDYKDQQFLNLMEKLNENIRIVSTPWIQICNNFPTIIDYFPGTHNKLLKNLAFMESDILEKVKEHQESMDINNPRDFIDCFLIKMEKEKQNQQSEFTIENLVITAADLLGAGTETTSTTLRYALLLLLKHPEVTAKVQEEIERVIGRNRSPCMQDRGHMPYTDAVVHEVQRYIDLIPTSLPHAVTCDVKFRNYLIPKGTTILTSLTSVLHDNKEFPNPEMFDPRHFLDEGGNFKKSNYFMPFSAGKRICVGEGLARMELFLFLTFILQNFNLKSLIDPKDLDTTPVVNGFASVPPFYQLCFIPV
Test: qHTS Assay for Inhibitors and Substrates of Cytochrome P450 2C19 (AID 899); further: nearly all actives have a fitted effect of over 60% in size
Settings: recombinant CYP2C19, luciferin-H EGE luminescence; series mostly up to 11.4 µM
Results filed as inconclusive are left out. Activity calls are given as the source filed them. Calls follow the shape of the dose curve; as a rule, active = well fitted inhibition curve with a large enough effect; inconclusive = small, poorly fitted or top-dose-only effect; inactive = no such curve, though single readings can be large or run the other way.
Answer with one of the outcomes given here: active, inactive

Example results:
compound	class
Oc1c(C(O)(c2ccccc2)c2ccc3ccccc3c2O)ccc2ccccc12	active
CC(C)(C)c1ccc(OCC(=O)O)c(Cl)c1	inactive
CN1CCc2nc(N)nc(-c3nc(N)nc4c3CN(C)CC4)c2C1	inactive
CC(CC(=O)O)(CC(=O)O)C(=O)O	inactive
Cc1cc(Cc2cc(C)cc(C(C)(C)C)c2O)c(O)c(Cc2cc(C)cc(C(C)(C)C)c2O)c1	active

Asked: Call for entry O=C1OC(=O)[C@@H]2[C@@H]1[C@@H]1CC[C@H]2O1 :
Given back: inactive

Asked: So what was the verdict on O=C(O)CCCCCC[C@@H]1C(=O)NC(=O)N1CC[C@@H](O)C1CCCCC1 in this test?
Given back: inactive

Asked: # fetch the recorded call for CSC(N)=NCCC[C@@H](N)C(=O)O here
Given back: inactive

====

Molecular target: Cytochrome P450 1A2 (Homo sapiens) (UniProt P05177)
Sequence (P05177 whole entry, looked up): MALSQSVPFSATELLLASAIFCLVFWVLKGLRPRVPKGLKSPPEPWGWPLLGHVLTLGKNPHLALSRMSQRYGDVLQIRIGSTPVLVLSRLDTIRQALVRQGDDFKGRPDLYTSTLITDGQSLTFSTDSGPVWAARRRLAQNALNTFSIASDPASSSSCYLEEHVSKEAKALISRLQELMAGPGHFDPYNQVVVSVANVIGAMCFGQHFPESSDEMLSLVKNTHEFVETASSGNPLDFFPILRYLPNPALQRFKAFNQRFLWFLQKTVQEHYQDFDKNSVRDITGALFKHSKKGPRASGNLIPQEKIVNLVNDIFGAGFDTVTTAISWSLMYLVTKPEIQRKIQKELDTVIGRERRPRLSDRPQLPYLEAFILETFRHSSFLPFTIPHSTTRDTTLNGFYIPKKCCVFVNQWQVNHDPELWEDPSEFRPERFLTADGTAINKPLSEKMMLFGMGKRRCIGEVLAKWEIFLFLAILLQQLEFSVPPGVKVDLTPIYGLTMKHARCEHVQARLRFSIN
Test: p450-cyp1a2 (AID 410);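 further: -100% = full effect of reference inhibitor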
Settings: recombinant CYP1A2, luciferin-ME demethylation, luminescence; series mostly up to 11.4 µM
Results filed as inconclusive are left out. The source made the active and inactive calls. The call rests on the fitted dose curve.
experimental readout: activity change, negative = inhibition

Check out these entries, answers already filled in.
compound	experimental readout	test value
N#CC(CC(=O)O)=C(c1ccccc1)c1ccccc1	activity change, negative = inhibition	-14.5% [at 2.29 µM] (inactive)
Cn1c(C[C@@H](O)c2nc3ccccc3n2C)nc2ccccc21	activity change, negative = inhibition	-2.6% [at 2.29 µM] (inactive)
O=C(O)[C@H]([C@H]1NCCS1)N1Cc2ccccc2C1	activity change, negative = inhibition	-13.4% [at 2.29 µM] (inactive)
NC1=C2NC=N[C@@H]2N(C/C=C\c2ccccc2)C=N1	activity change, negative = inhibition	-12.4% [at 2.29 µM] (inactive)
Cc1cc(N=Cc2c(CO)cnc(C)c2O)c(N=Cc2c(CO)cnc(C)c2O)cc1C.[Zn]	activity change, negative = inhibition	-10.4% [at 2.29 µM] (inactive)

Asked: Provide measured activity change, negative = inhibition on Cytochrome P450 1A2 (Homo sapiens) (UniProt P05177) for Cn1c(=O)c2[nH]c(CSCc3ccccc3)nc2n(C)c1=O please.
Given back: -15.4% [at 2.29 µM] (inactive)

Asked: Report activity change, negative = inhibition under test system Cytochrome P450 1A2 (Homo sapiens) (UniProt P05177) for CN[C@@H]1NC(=O)c2ccccc2N1Cc1ccc(F)cc1 .
Given back: -7.6% [at 2.29 µM] (inactive)

Asked: State measured activity change, negative = inhibition of the compound Clc1ccc2c(NC3CCC(N4CCCCC4)CC3)ccnc2c1 (configuration not stated) with Cytochrome P450 1A2 (Homo sapiens) (UniProt P05177).
Given back: -15.7% [at 2.29 µM] (inactive)

Asked: Provide the reported activity change, negative = inhibition (system: Cytochrome P450 1A2 (Homo sapiens) (UniProt P05177)) for C[N+](C)(N)Cc1csc(-c2ccc(Cl)cc2)n1
Given back: -4.2% [at 2.29 µM] (inactive)

Asked: Determine reported activity change, negative = inhibition for Cc1ccc(S(=O)(=O)N[C@H](CN)C(=O)O)cc1 ; test system: Cytochrome P450 1A2 (Homo sapiens) (UniProt P05177).
Given back: -18.5% [at 2.29 µM] (inactive)

Asked: Look up and report measured activity change, negative = inhibition (Cytochrome P450 1A2 (Homo sapiens) (UniProt P05177)) for the following compound: COC(=O)[C@@H]1O[C@@H](SCCN)[C@@H](O)[C@H](O)[C@H]1O
Given back: 10.2% [at 2.29 µM] (inactive)

Asked: Name the value of activity change, negative = inhibition reported for O=C(O)CSc1cc(-c2ccccc2)nc2ccccc12 when tested on Cytochrome P450 1A2 (Homo sapiens) (UniProt P05177).
Given back: -4.7% [at 2.29 µM] (inactive)

Asked: Provide the reported activity change, negative = inhibition (system: Cytochrome P450 1A2 (Homo sapiens) (UniProt P05177)) for CN(C)CCCn1cnc2cc(Cl)c(Cl)cc21
Given back: -20% [at 2.29 µM] (inactive)
